src = patent US10940139B2

# System: MIA-PACA2 pancreatic cancer cell lines
# assayRemarks: Cell proliferation assay (CellTiter 96 AQueous One)
# Type: cell-based
# assayContext: Homo sapiens, MIA PaCa-2; at 30 μM, MIA-PACA2
parameterMeasured: inhibition at 30 µM

>>> testresult("O=S1(=O)CCC(Nc2nc(-c3ccccn3)nc3scc(-c4ccccc4)c23)C1 (stereo not drawn) [drawing 1615]")
"76 to 100%"
>>> testresult("O=C(c1csc2c(O)nc(-c3ccccn3)nc12)N1CCNC(c2ccccc2F)C1 (stereo not drawn) [drawing 1669]")
"76 to 100%"
>>> testresult("CCc1cc(NNC(=O)c2ccc(C#N)cc2)nc(-c2ccccn2)n1 [drawing 1511]")
"76 to 100%"
>>> testresult("c1ccc(-c2nc(N3CCOCC3)c3ccsc3n2)nc1 [drawing 1588]")
"51 to 75%"
>>> testresult("COc1ccccc1C1CN(C(=O)c2csc3c(O)nc(-c4ccccn4)nc23)CCO1 (stereo not drawn) [drawing 1660]")
"76 to 100%"
>>> testresult("CC(C)(O)c1ccc(-c2csc3c(O)nc(-c4ccccn4)nc23)c(F)c1 [drawing 1756]")
"76 to 100%"
>>> testresult("COc1ccc(NC(=O)CCc2c(C)nc(-c3ccccn3)nc2O)cn1 [drawing 1501]")
"76 to 100%"
>>> testresult("Nc1nc(-c2ccccn2)nc2c(-c3ccccc3Cl)csc12 [drawing 1711]")
"76 to 100%"
>>> testresult("O=C(Nc1nnc(-c2ccccn2)[nH]1)c1ccc(NC(=O)c2ccccn2)cc1 [drawing 1440]")
"25 to 50%"
>>> testresult("Oc1nc(-c2ccccn2)nc2c(-c3ccnn3-c3ccccn3)csc12 [drawing 1780]")
"76 to 100%"
>>> testresult("O=C(Nc1nnc(-c2ccccn2)[nH]1)c1ccc(=O)[nH]n1 [drawing 1470]")
"25 to 50%"
>>> testresult("CC1CCN(C(=O)c2csc3c(O)nc(-c4ccccn4)nc23)CC1 [drawing 1563]")
"76 to 100%"
>>> testresult("Oc1nc(-c2ccccn2)nc2c(-c3ccc(OC(F)F)cc3F)csc12 [drawing 1752]")
"76 to 100%"
>>> testresult("CS(=O)(=O)N1CCCc2cc(C(=O)N3CCCc4c(O)nc(-c5ccccn5)nc43)ccc21 [drawing 1547]")
"76 to 100%"
>>> testresult("N#Cc1ccc(COCC(=O)Nc2ccnc(-c3ccccn3)n2)cc1 [drawing 1689]")
"76 to 100%"
>>> testresult("COc1ccc(COCC(=O)Nc2nnc(-c3ccccn3)[nH]2)cc1 [drawing 1471]")
"1 to 25%"
>>> testresult("Nc1nc(-c2ccccn2)nc2c(-c3ccccc3)csc12 [drawing 1735]")
"76 to 100%"
>>> testresult("O=C(c1csc2c(O)nc(-c3ccccn3)nc12)N(CCO)CCOCCO [drawing 1576]")
"1 to 25%"
>>> testresult("N#CCc1ccc(OCC(=O)Nc2nnc(-c3ccccn3)[nH]2)cc1 [drawing 1462]")
"1 to 25%"
>>> testresult("CN(Cc1cnn(C)c1)c1nc(-c2ccccn2)nc2scc(-c3ccccc3)c12 [drawing 1604]")
"76 to 100%"
>>> testresult("CN(C)Cc1ccc(-c2csc3c(O)nc(-c4ccccn4)nc23)cc1F [drawing 1721]")
"76 to 100%"
>>> testresult("O=C(NCCc1cccnc1)c1csc2c(O)nc(-c3ccccn3)nc12 [drawing 1578]")
"76 to 100%"
>>> testresult("CC(C(=O)Nc1nc(-c2ccccn2)nc2sccc12)c1ccc(C#N)cc1 (stereo not drawn) [drawing 1691]")
"76 to 100%"
>>> testresult("O=C(CCn1ccc2ccccc21)Nc1nnc(-c2ccccn2)[nH]1 [drawing 1392]")
"51 to 75%"
>>> testresult("COc1ccncc1CCNC(=O)c1csc2nc(-c3ccccn3)nc(N3CCOCC3)c12 [drawing 1673]")
"76 to 100%"
>>> testresult("COc1nc(-c2ccccn2)nc2c(C3CCCC3)csc12 [drawing 1793]")
"76 to 100%"
>>> testresult("CC(C)COC(C)C(=O)Nc1nnc(-c2ccccn2)[nH]1 (stereo not drawn) [drawing 1418]")
"76 to 100%"
>>> testresult("O=C(c1csc2c(O)nc(-c3ccccn3)nc12)N1CCC(N2CCCC2=O)CC1 [drawing 1568]")
"1 to 25%"
>>> testresult("O=C(Nc1nnc(-c2ccccn2)[nH]1)c1ccc(Oc2cccnc2)cc1 [drawing 1460]")
"76 to 100%"
>>> testresult("O=C(CCc1cnn(-c2ccccc2)c1)Nc1nnc(-c2ccccn2)[nH]1 [drawing 1383]")
"76 to 100%"
>>> testresult("O=C(NCCc1cnc(O)nc1)c1csc2nc(-c3ccccn3)nc(N3CCS(=O)(=O)CC3)c12 [drawing 1730]")
"1 to 25%"
>>> testresult("COc1ccc(CCC(=O)Nc2nnc(-c3ccccn3)[nH]2)cc1 [drawing 1398]")
"51 to 75%"
>>> testresult("Cc1cc2nc(-c3ccccn3)nc(N)c2s1 [drawing 1712]")
"76 to 100%"
>>> testresult("CC1CCc2sc(C(=O)Nc3nnc(-c4ccccn4)[nH]3)cc2C1 (stereo not drawn) [drawing 1443]")
"76 to 100%"
>>> testresult("COc1cc(N2CCN(C(=O)c3csc4c(O)nc(-c5ccccn5)nc34)CC2)cc(OC)c1OC [drawing 1651]")
"51 to 75%"
>>> testresult("COc1ccc(CCNC(=O)c2csc3nc(-c4ccccn4)nc(N4CCOCC4)c23)cn1 [drawing 1639]")
"51 to 75%"
